Below, each entry is listed alongside its reported pEC50.
# Test system: eotaxin-3 release
# TEST_DESCRIPTION: Human whole blood eotaxin-3 assay (IL-4 stimulated)
# Format: cell-based
# RUN_PARAMETERS: human whole blood, IL-4 0.4 nM, 48 hours; geometric mean; given for compounds with >80% Emax; read-out: Eotaxin-3 EC50
# Method: Human Whole Blood Eotaxin-3 Assay This was a human whole blood assay using recombinant human Interleukin 4 to stimulate the blood and measuring the ability of the test compounds to inhibit eotaxin-3 release. Compounds or media were added to the wells and incubated together with human whole blood for 120 minutes at 37° C. Subsequently, recombinant IL-4 was added at a final concentration of 0.4 nM. The plates were incubated for 48 hours. […]
Please express pEC50 as -log10 of the molar concentration.

# example entries with known answers
| MOLECULE | pEC50 |
| --- | --- |
| CNc1ccc(-c2ccnc3c2cc([C@H](C)N2CC=C(c4c(C)cc(C(=O)N5CCC(CN6CCN(Cc7cc8c(cc7F)N(C7CCC(=O)NC7=O)C(=O)C8(C)C)C[C@@H]6C)CC5)cc4F)CC2)n3C)cn1 (some centres unmarked) | 7.39 |
| C[C@H]1CN(Cc2ccc3c(c2)C(C)(C)C(=O)N3[C@H]2CCC(=O)NC2=O)CCN1CC1CCN(C(=O)c2ccc(C3CCN([C@@H](C)c4cc5c(-c6ccc(N)nc6)ccnc5n4C)CC3)cc2)CC1 | 8.10 |
| C[C@H]1CN(Cc2cc3c(cc2F)n(C2CCC(=O)NC2=O)c(=O)n3C)CCN1CC1CCN(C(=O)c2ccc(C3CCN([C@@H](C)c4cc5c(-c6ccc(N)nc6)ccnc5n4C)CC3)cc2)CC1 (mixture of isomers) | 8.74 |
| C[C@H]1CN(Cc2ccc3c(c2)n(C2CC2)c(=O)n3[C@H]2CCC(=O)NC2=O)CCN1CC1CCN(C(=O)c2ccc(C3CCN([C@@H](C)c4cc5c(-c6ccc(N)nc6)ccnc5n4C)CC3)cc2)CC1 (single isomer, unassigned) | 8.64 |
| COC[C@H]1CN(Cc2ccc3c(c2)n(C)c(=O)n3C2CCC(=O)NC2=O)CCN1CC1CCN(C(=O)c2ccc(C3CCN([C@@H](C)c4cc5c(-c6ccc(N)nc6)ccnc5n4C)CC3)cc2)CC1 (some centres unmarked) | 8.96 |
| C[C@H]1CN(Cc2ccc3c(c2)n(C)c(=O)n3[C@H]2CCC(=O)NC2=O)CCN1CC1CCN(C(=O)c2ccc(C3CCN(Cc4cc5c(-c6ccc(N)nc6)ccnc5n4C)CC3)cc2)CC1 (single isomer, unassigned) | 7.68 |
| C[C@H]1CN(Cc2ccc3c(c2)C2(CCC2)C(=O)N3C2CCC(=O)NC2=O)CCN1CC1CCN(C(=O)c2ccc(C3CCN([C@@H](C)c4cc5c(-c6ccc(N)nc6)ccnc5n4C)CC3)cc2)CC1 (some centres unmarked) | 7.88 |
| CC[C@H]1CN(Cc2ccc3c(c2)n(C2CC2)c(=O)n3[C@H]2CCC(=O)NC2=O)CCN1CC1CCN(C(=O)c2ccc(C3CCN([C@@H](C)c4cc5c(-c6ccc(N)nc6)ccnc5n4C)CC3)cc2)CC1 (single isomer, unassigned) | 8.27 |
| C[C@@H](c1cc2c(-c3ccc(N)nc3)ccnc2n1C)N1CCC(c2ccc(C(=O)N3CCC(CN4CCN(Cc5ccc6c(c5)oc(=O)n6C5CCC(=O)NC5=O)CC4)CC3)cc2)CC1 (some centres unmarked) | 8.22 |
| C[C@H]1CN(Cc2ccc3c(c2)n(C)c(=O)n3C2CCC(=O)NC2=O)CCN1CC1(F)CCN(C(=O)c2ccc(C3CCN([C@@H](C)c4cc5c(-c6ccc(N)nc6)ccnc5n4C)CC3)cc2)CC1 (some centres unmarked) | 8.68 |

The reported pEC50 of the molecule C[C@H]1CN(Cc2ccc3c(c2)n(C)c(=O)n3[C@@H]2CCC(=O)NC2=O)CCN1CC1CCN(C(=O)c2ccc(C3CCN([C@@H](C)c4cc5c(-c6ccc(N)nc6)ccnc5n4C)CC3)cc2)CC1 (single isomer, unassigned) was 8.85

The reported pEC50 of the molecule C[C@H]1CN(Cc2ccc3c(c2)n(C2CC2)c(=O)n3[C@@H]2CCC(=O)NC2=O)CCN1CC1CCN(C(=O)c2ccc(C3CCN([C@@H](C)c4cc5c(-c6ccc(N)nc6)ccnc5n4C)CC3)cc2)CC1 (single isomer, unassigned) was 8.51

The reported pEC50 of the molecule C[C@@H](c1cc2c(-c3ccc(N)nc3)ccnc2n1C)N1CCC(c2ccc(C(=O)N3CCC(CN4CCN(Cc5cc6c(cc5F)n(C5CCC(=O)NC5=O)c(=O)n6C)CC4)CC3)cc2)CC1 (some centres unmarked) was 8.31

The reported pEC50 of the molecule C[C@H]1CN(Cc2ccc3c(c2)n(C)c(=O)n3C2CCC(=O)NC2=O)CCN1CC1CCN(C(=O)c2ccc(C3CCN([C@@H](C)c4cc5c(-c6ccc(N)nc6)ccnc5n4C)CC3)cc2)CC1 (some centres unmarked) was 8.89

The reported pEC50 of the molecule C[C@@H](c1cc2c(-c3ccc(N)nc3)ccnc2n1C)N1CCC(c2ccc(C(=O)N3CCC(CN4CCN(c5cc6c(cc5F)n(C5CCC(=O)NC5=O)c(=O)n6C)CC4)CC3)cc2)CC1 (some centres unmarked) was 7.71

The reported pEC50 of the molecule CNc1ccc(-c2ccnc3c2cc(CN2CCC(c4c(F)cc(C(=O)N5CCC(CN6CCN(Cc7ccc8c(c7)C7(CC7)C(=O)N8C7CCC(=O)NC7=O)C[C@@H]6C)CC5)cc4F)CC2)n3C)cn1 (some centres unmarked) was 8.15

The reported pEC50 of the molecule CC[C@H]1CN(Cc2ccc3c(c2)n(C2CC2)c(=O)n3[C@@H]2CCC(=O)NC2=O)CCN1CC1CCN(C(=O)c2ccc(C3CCN([C@@H](C)c4cc5c(-c6ccc(N)nc6)ccnc5n4C)CC3)cc2)CC1 (single isomer, unassigned) was 8.22
